The measurements presented in this section are drawn from the supplement of paper PMC5908809.

In this section, each of the compounds is paired with its reported percent inhibition of viability.
test system: DERL-7 (IL-2 2.5 ng/mL); test: percent inhibition of viability; higher = more inhibition; conditions: 72 h; 10000 nM
Write the number in % without appending the unit.

>  <compound>
NC(=S)N/N=C/c1ncccc1N [Triapine] (max concentration tested 10000 nM)

>  <units_text>
%

>  <percent inhibition of viability>
97.7

$$$$
>  <compound>
CC(C)n1cnc2c(NCCc3ccc(O)cc3)nc(-c3csc4ccccc34)nc21 [StemRegenin 1] (max concentration tested 10000 nM)

>  <units_text>
%

>  <percent inhibition of viability>
96.4

$$$$

With those in mind, consider the next compound.
Prompt line: Sample CC(C)c1c(C(=O)Nc2ccccc2)c(-c2ccccc2)c(-c2ccc(F)cc2)n1CC[C@@H](O)C[C@@H](O)CC(=O)O [Atorvastatin] (max concentration tested 10000 nM) — what was its percent inhibition of viability?
Response line: 54.2

---

system: YT (IL-2 2.5 ng/mL); test: relative IC50 (inflection point of fitted viability curve, relative to fitted max inhibition); higher = less sensitive; conditions: 72 h
property_label: relative IC50
Report the figure along with its unit, number first.

>  <structure_string>
N#CCNC(=O)c1ccc(-c2ccnc(Nc3ccc(N4CCOCC4)cc3)n2)cc1

>  <relative IC50>
1.14 µM

$$$$

Prompt line: Sample "CCc1cnn2c(NCc3ccc[n+]([O-])c3)cc(N3CCCC[C@H]3CCO)nc12" — what was its relative IC50?
Response line: 0.0036 µM

Prompt line: Sample "O=C(CCCCCCC(=O)Nc1ccc([C@H]2O[C@@H](CSc3nc(-c4ccccc4)c(-c4ccccc4)o3)C[C@@H](c3ccc(CO)cc3)O2)cc1)NO" — what was its relative IC50?
Response line: 2.63 µM

Prompt line: Sample "CCCc1cc(C)[nH]c(=O)c1CNC(=O)c1cc(-c2ccnc(N3CCN(C)CC3)c2)cc2c1cnn2C(C)C" — what was its relative IC50?
Response line: 2.89 µM

---

system: DERL-7 (IL-2 2.5 ng/mL); assay: drug sensitivity score (DSS) (DSS units); higher = more sensitive; extreme values may be limits of the assay; conditions: 72 h
Please enter MET where drug sensitivity score is greater than or equal to 4, and NOT MET where it is lower.

Illustrative cases are given below, each with its answer.
>  <compound>
O=S(=O)(c1cccc2cnccc12)N1CCCNCC1 [Fasudil] (max concentration tested 50000 nM)

>  <qualitative_label>
NOT MET

$$$$
>  <compound>
Cc1c(CN2CCN(C(=O)[C@H](C)O)CC2)sc2c(N3CCOCC3)nc(-c3cnc(N)nc3)nc12 [Apitolisib] (max concentration tested 10000 nM)

>  <qualitative_label>
MET

$$$$
>  <compound>
O=C(Nc1cc(Cl)cc2c1[nH]c1cnccc12)c1cccnc1 [PS-1145] (max concentration tested 25000 nM)

>  <qualitative_label>
NOT MET

$$$$
>  <compound>
CCC1(c2ccc(N)cc2)CCC(=O)NC1=O (configuration not stated) [Aminoglutethimide] (max concentration tested 10000 nM)

>  <qualitative_label>
NOT MET

$$$$
>  <compound>
CC1(C)CCC(c2ccc(Cl)cc2)=C(CN2CCN(c3ccc(C(=O)NS(=O)(=O)c4ccc(N[C@H](CCN5CCOCC5)CSc5ccccc5)c(S(=O)(=O)C(F)(F)F)c4)cc3)CC2)C1 [Navitoclax] (max concentration tested 10000 nM)

>  <qualitative_label>
MET

$$$$

Prompt line: Threshold query (drug sensitivity score >= 4) on CC/C(=C(\c1ccc(O)cc1)c1ccc(OCCN(C)C)cc1)c1ccccc1 [4-hydroxytamoxifen] (max concentration tested 10000 nM)
Response line: MET

Prompt line: Threshold query (drug sensitivity score >= 4) on COc1nc(N)nc2c1ncn2[C@@H]1O[C@H](CO)[C@@H](O)[C@@H]1O [Nelarabine] (max concentration tested 10000 nM)
Response line: MET

Prompt line: Threshold query (drug sensitivity score >= 4) on C[C@@H](C(=O)O)c1ccc(-c2ccccc2)c(F)c1 [Tarenflurbil] (max concentration tested 10000 nM)
Response line: NOT MET
